system: Saccharomyces cerevisiae; test: protein stability index of tFT-peptide fusion in deletion strain of DOA10 (PSI (0-1 scale)); higher = more stable (slower turnover)
QUANTITY: protein stability index
Answer with a bare number; do not write a unit.

Req: Identify the reported protein stability index for the following entry. GLYDCSVGCWFR
Resp: 0.716

Req: Identify the reported protein stability index for the following entry. RSLRVLLPLYVR
Resp: 0.35

Req: Identify the reported protein stability index for the following entry. RVTRLDAIYERI
Resp: 0.708

Req: Identify the reported protein stability index for the following entry. CLVSLPILLFFI
Resp: 0.436

Req: Identify the reported protein stability index for the following entry. GLYMCEVGCWFR
Resp: 0.642

Req: Identify the reported protein stability index for the following entry. AITLPMSPLLLR
Resp: 0.673

Req: Identify the reported protein stability index for the following entry. AITLPMCPLLFR
Resp: 0.669

Req: Identify the reported protein stability index for the following entry. AITLPMCPVLLR
Resp: 0.623

Req: Identify the reported protein stability index for the following entry. RSERVLLPLYFR
Resp: 0.674

----------
tested on: Saccharomyces cerevisiae; assay: protein stability index of tFT-peptide fusion (C-terminal peptide) (PSI (0-1 scale)); higher = more stable (slower turnover); details: genetic background: cdc34-1; temperature: 37 C
Where protein stability index equals or exceeds 0.5, the correct label is condition met; where it does not, the label is condition not met.

Req: Hello, I need to know if KFWVVLIEIKYH has measured protein stability index not below 0.5. Thanks!
Resp: condition not met

Req: Hello, I need to know if DVVRWQRVRNYV has measured protein stability index not below 0.5. Thanks!
Resp: condition met

Req: Hello, I need to know if RWCLVWGGVWGV has measured protein stability index not below 0.5. Thanks!
Resp: condition met

Req: Hello, I need to know if GFSVFSHSVWVR has measured protein stability index not below 0.5. Thanks!
Resp: condition not met

Req: Hello, I need to know if CRQDWMCFVYLS has measured protein stability index not below 0.5. Thanks!
Resp: condition not met

Req: Hello, I need to know if LVPLSLLLCFFV has measured protein stability index not below 0.5. Thanks!
Resp: condition met

Req: Hello, I need to know if LLVRYRRALVLL has measured protein stability index not below 0.5. Thanks!
Resp: condition not met

Req: Hello, I need to know if FFVKGFRLLVFQ has measured protein stability index not below 0.5. Thanks!
Resp: condition not met

Req: Hello, I need to know if WVVLVCGFVLLG has measured protein stability index not below 0.5. Thanks!
Resp: condition not met

Req: Hello, I need to know if KTDVYPVSFFTC has measured protein stability index not below 0.5. Thanks!
Resp: condition met

Req: Hello, I need to know if IACISCLLCVVV has measured protein stability index not below 0.5. Thanks!
Resp: condition met

Req: Hello, I need to know if LSPPLRHRLTPP has measured protein stability index not below 0.5. Thanks!
Resp: condition met

----------
tested on: Saccharomyces cerevisiae; experiment: protein stability index of tFT-peptide fusion (C-terminal peptide) (PSI (0-1 scale)); higher = more stable (slower turnover); conditions: genetic background: wild type; temperature: 30 C
Where protein stability index equals or exceeds 0.7, the correct label is rule met; where it does not, the label is rule not met.

Req: Hello, I need to know if HTSKFKKQRKKR has measured protein stability index not below 0.7. Thanks!
Resp: rule met

Req: Hello, I need to know if VCAAWKCRLDAG has measured protein stability index not below 0.7. Thanks!
Resp: rule not met

Req: Hello, I need to know if LFHFLSPVALPS has measured protein stability index not below 0.7. Thanks!
Resp: rule not met

Req: Hello, I need to know if PLRLPVPLPSPP has measured protein stability index not below 0.7. Thanks!
Resp: rule not met

Req: Hello, I need to know if TGLLLGLFGCML has measured protein stability index not below 0.7. Thanks!
Resp: rule not met

Req: Hello, I need to know if CITKERVMVKFV has measured protein stability index not below 0.7. Thanks!
Resp: rule not met

----------
tested on: Saccharomyces cerevisiae; test: protein stability index of tFT-peptide fusion (C-terminal peptide) (PSI (0-1 scale)); higher = more stable (slower turnover); settings: genetic background: wild type; temperature: 30 C
QUANTITY: protein stability index
Answer with a bare number; do not write a unit.

Req: Jot down protein stability index (Saccharomyces cerevisiae) of TYANKVKVHCGI .
Resp: 0.651

Req: Jot down protein stability index (Saccharomyces cerevisiae) of FPPPCVLPLPRT .
Resp: 0.723

Req: Jot down protein stability index (Saccharomyces cerevisiae) of GGGVATGGGGGG .
Resp: 0.599

Req: Jot down protein stability index (Saccharomyces cerevisiae) of GFLSYWYISFPF .
Resp: 0.641

Req: Jot down protein stability index (Saccharomyces cerevisiae) of KKEQKRKKKEKQ .
Resp: 0.758

Req: Jot down protein stability index (Saccharomyces cerevisiae) of NMVSMVVVIFGV .
Resp: 0.275

Req: Jot down protein stability index (Saccharomyces cerevisiae) of GGGGGGPGGVLK .
Resp: 0.706

Req: Jot down protein stability index (Saccharomyces cerevisiae) of GGRREGRGFNDG .
Resp: 0.676

Req: Jot down protein stability index (Saccharomyces cerevisiae) of QRGGTWGALWEG .
Resp: 0.671

Req: Jot down protein stability index (Saccharomyces cerevisiae) of GAGRAVRAFCVL .
Resp: 0.651

Req: Jot down protein stability index (Saccharomyces cerevisiae) of ILFGSILGVPLL .
Resp: 0.661

Req: Jot down protein stability index (Saccharomyces cerevisiae) of PLTSPLLFPVFA .
Resp: 0.376

Req: Jot down protein stability index (Saccharomyces cerevisiae) of RGIILSSSGFVW .
Resp: 0.735

Req: Jot down protein stability index (Saccharomyces cerevisiae) of APHYPTGPTVKI .
Resp: 0.692

Req: Jot down protein stability index (Saccharomyces cerevisiae) of TSGAQSTRLGRE .
Resp: 0.778

Req: Jot down protein stability index (Saccharomyces cerevisiae) of PVVLGVGMEGIS .
Resp: 0.714

Req: Jot down protein stability index (Saccharomyces cerevisiae) of PSPPPPPPTPAS .
Resp: 0.655

Req: Jot down protein stability index (Saccharomyces cerevisiae) of CVFGFACRVLVV .
Resp: 0.338

Req: Jot down protein stability index (Saccharomyces cerevisiae) of TWANKRIGRRKE .
Resp: 0.778

Req: Jot down protein stability index (Saccharomyces cerevisiae) of SSPRANAYASCP .
Resp: 0.726

Req: Jot down protein stability index (Saccharomyces cerevisiae) of PRSAPPRRPPTP .
Resp: 0.753

Req: Jot down protein stability index (Saccharomyces cerevisiae) of HSRTLTQKKTNN .
Resp: 0.715

Req: Jot down protein stability index (Saccharomyces cerevisiae) of KKEAKRDKKSGR .
Resp: 0.727

Req: Jot down protein stability index (Saccharomyces cerevisiae) of ALPRAPSRPPAR .
Resp: 0.67

Req: Jot down protein stability index (Saccharomyces cerevisiae) of GTSDPRGSGPAG .
Resp: 0.715

Req: Jot down protein stability index (Saccharomyces cerevisiae) of WRFTSCCPDPAT .
Resp: 0.772

Req: Jot down protein stability index (Saccharomyces cerevisiae) of VFGFLGSLASCR .
Resp: 0.853

Req: Jot down protein stability index (Saccharomyces cerevisiae) of EAEKTERCVIKG .
Resp: 0.645

Req: Jot down protein stability index (Saccharomyces cerevisiae) of TKTKKKKNKKQE .
Resp: 0.719

Req: Jot down protein stability index (Saccharomyces cerevisiae) of TLWWRQPFWGFG .
Resp: 0.722

Req: Jot down protein stability index (Saccharomyces cerevisiae) of LLFCFIPCVFWG .
Resp: 0.51

Req: Jot down protein stability index (Saccharomyces cerevisiae) of PHNSARSLPLHF .
Resp: 0.717

Req: Jot down protein stability index (Saccharomyces cerevisiae) of GARERRRRRRRP .
Resp: 0.713

Req: Jot down protein stability index (Saccharomyces cerevisiae) of RLVRSPSRFSWR .
Resp: 0.667

Req: Jot down protein stability index (Saccharomyces cerevisiae) of PVAPKPTGAKTP .
Resp: 0.661

Req: Jot down protein stability index (Saccharomyces cerevisiae) of RNLRFEVLAVVI .
Resp: 0.527

Req: Jot down protein stability index (Saccharomyces cerevisiae) of EALLWWGAWGVV .
Resp: 0.769

Req: Jot down protein stability index (Saccharomyces cerevisiae) of LVCMGCCVRTYT .
Resp: 0.608

Req: Jot down protein stability index (Saccharomyces cerevisiae) of PRSVLGFKMGRF .
Resp: 0.715

Req: Jot down protein stability index (Saccharomyces cerevisiae) of GGWGRKCGGSGG .
Resp: 0.711

----------
Field: protein stability index. Provide a value for each of the sequences that follow.
tested on: Saccharomyces cerevisiae; experiment: protein stability index of tFT-peptide fusion (C-terminal peptide) (PSI (0-1 scale)); higher = more stable (slower turnover); conditions: genetic background: wild type; temperature: 30 C
Answer with a bare number; do not write a unit.

Req: Identify the reported protein stability index for the following entry. KRHCDRVLKMWH
Resp: 0.641

Req: Identify the reported protein stability index for the following entry. VLPPLSALAPFD
Resp: 0.764

Req: Identify the reported protein stability index for the following entry. RSYGVGYEGDKG
Resp: 0.719

Req: Identify the reported protein stability index for the following entry. SCFCNFFRFCCI
Resp: 0.637

Req: Identify the reported protein stability index for the following entry. PPTPPCTSSPAR
Resp: 0.739

Req: Identify the reported protein stability index for the following entry. ELWRAGEVRGGK
Resp: 0.713

Req: Identify the reported protein stability index for the following entry. LTVLGSGNLTRS
Resp: 0.729

Req: Identify the reported protein stability index for the following entry. KFVSQLGQRTRF
Resp: 0.745

Req: Identify the reported protein stability index for the following entry. VEGNLIYKKKYK
Resp: 0.656

Req: Identify the reported protein stability index for the following entry. MSRPGEGSYIGD
Resp: 0.652

Req: Identify the reported protein stability index for the following entry. TAVIRASRFEEI
Resp: 0.672

Req: Identify the reported protein stability index for the following entry. KGMEWEKGYKRL
Resp: 0.838

Req: Identify the reported protein stability index for the following entry. LLPPALPESPPP
Resp: 0.649

Req: Identify the reported protein stability index for the following entry. RLGYSWGECPGG
Resp: 0.699

Req: Identify the reported protein stability index for the following entry. GWSGWFSRVLRG
Resp: 0.726

Req: Identify the reported protein stability index for the following entry. PSIPRTTLLSCN
Resp: 0.607

Req: Identify the reported protein stability index for the following entry. PLAHYRPLPPRL
Resp: 0.787

Req: Identify the reported protein stability index for the following entry. FLLPWLRPVFFF
Resp: 0.293

Req: Identify the reported protein stability index for the following entry. TLLLLLPPLPSF
Resp: 0.598

Req: Identify the reported protein stability index for the following entry. CLSSVSLSNVSV
Resp: 0.669

Req: Identify the reported protein stability index for the following entry. VWGGGGVTVWLV
Resp: 0.615

Req: Identify the reported protein stability index for the following entry. PSPAPHIPIFFR
Resp: 0.742

Req: Identify the reported protein stability index for the following entry. LVLTLAPWILFD
Resp: 0.678

Req: Identify the reported protein stability index for the following entry. CFVQVGGLVKIS
Resp: 0.412

Req: Identify the reported protein stability index for the following entry. LAYIFTPVRTTG
Resp: 0.799

Req: Identify the reported protein stability index for the following entry. GIKQEMKYQVGK
Resp: 0.665

From: the supplement of paper PMC10724198
